Data credit: patent US11352391B2

target: recombinant hNK2R expressed in CHO cells (Homo sapiens, UniProt P21452); assay: Intracellular calcium mobilization (FLIPR) in CHO-hNK2 cells; format: cell-based; conditions: ratio of EC50s hNK1R/hNK2R
Sequence (P21452 whole entry): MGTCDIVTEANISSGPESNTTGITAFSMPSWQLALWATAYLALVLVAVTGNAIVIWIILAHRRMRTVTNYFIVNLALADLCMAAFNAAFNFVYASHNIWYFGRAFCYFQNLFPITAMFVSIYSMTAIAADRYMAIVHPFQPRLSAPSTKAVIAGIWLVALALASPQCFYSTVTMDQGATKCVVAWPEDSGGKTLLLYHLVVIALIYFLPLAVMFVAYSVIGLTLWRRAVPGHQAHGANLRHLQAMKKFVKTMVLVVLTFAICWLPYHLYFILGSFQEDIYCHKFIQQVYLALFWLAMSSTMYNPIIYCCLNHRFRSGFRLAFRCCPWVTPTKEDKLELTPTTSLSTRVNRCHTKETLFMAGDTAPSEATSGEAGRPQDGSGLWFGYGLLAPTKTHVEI
Where a SMILES comes first, the peptide text is derived from it.
property name: hNK2 selectivity ratio
Output: the number by itself.

Incoming: Given CSCC[C@H](NC(=O)[C@H](CC(C)C)NC(=O)CCNC(=O)[C@@H](NC(=O)[C@H](Cc1ccccc1)NC(=O)[C@H](CCCCN)NC(=O)[C@@H](N)CC(=O)O)C(C)C)C(N)=O [Compound E, Asp-Lys-Phe-Val-(β-Ala)-Leu-Met-NH2] (HELM PEPTIDE1{D.K.F.V.[bAla].L.M.[am]}$$$$V2.0; N-terminus assumed) , state its recorded hNK2 selectivity ratio.
Outgoing: 36

Incoming: Given CCCC[C@H](NC(=O)[C@H](CC(C)C)N(C)C(=O)CNC(=O)[C@@H](NC(=O)[C@H](Cc1ccccc1)NC(=O)[C@H](CCCNC(=N)N)NC(=O)[C@@H](N)CC(=O)O)C(C)C)C(N)=O [Compound B, Asp-Arg-Phe-Val-Gly-(NMe-Leu)-Nle-NH2] (HELM PEPTIDE1{D.R.F.V.G.[meL].[Nle].[am]}$$$$V2.0; N-terminus assumed) , state its recorded hNK2 selectivity ratio.
Outgoing: 70
